tested on: C. tropicalis; assay: Toxicity tests of additional substrates (absorbance at 600 nm); format: cell-based; conditions: substrate concentration 0.3%, 24 hours, added without solvent
Assay Metric: Absorbance at 600 nm

Field: example entries. Status: answers known.
INSERT INTO assay_data (compound, result) VALUES
  ('CCCCC(=O)C(C)C', 0.099),
  ('CCC1CCCCC1', 2.03),
  ('CCCCC(CC)C1OCCN1CCCC (stereo not shown) [3-Butyl-(ethylpentyl)oxazolidine, 3-Butyl-2(1-ethylpentyl)oxazolidine]', 0.245);

Alright, here's another compound for you.
Supply reported Absorbance at 600 nm belonging to this compound: CC1CCCCC1
15.6
